# test.system: biotinylated human DLL3 protein expressed as a human IgG1 fusion protein (human) (UniProt Q9NYJ7)
# Sequence (Q9NYJ7 other isoform, or with tags, fused parts or gaps): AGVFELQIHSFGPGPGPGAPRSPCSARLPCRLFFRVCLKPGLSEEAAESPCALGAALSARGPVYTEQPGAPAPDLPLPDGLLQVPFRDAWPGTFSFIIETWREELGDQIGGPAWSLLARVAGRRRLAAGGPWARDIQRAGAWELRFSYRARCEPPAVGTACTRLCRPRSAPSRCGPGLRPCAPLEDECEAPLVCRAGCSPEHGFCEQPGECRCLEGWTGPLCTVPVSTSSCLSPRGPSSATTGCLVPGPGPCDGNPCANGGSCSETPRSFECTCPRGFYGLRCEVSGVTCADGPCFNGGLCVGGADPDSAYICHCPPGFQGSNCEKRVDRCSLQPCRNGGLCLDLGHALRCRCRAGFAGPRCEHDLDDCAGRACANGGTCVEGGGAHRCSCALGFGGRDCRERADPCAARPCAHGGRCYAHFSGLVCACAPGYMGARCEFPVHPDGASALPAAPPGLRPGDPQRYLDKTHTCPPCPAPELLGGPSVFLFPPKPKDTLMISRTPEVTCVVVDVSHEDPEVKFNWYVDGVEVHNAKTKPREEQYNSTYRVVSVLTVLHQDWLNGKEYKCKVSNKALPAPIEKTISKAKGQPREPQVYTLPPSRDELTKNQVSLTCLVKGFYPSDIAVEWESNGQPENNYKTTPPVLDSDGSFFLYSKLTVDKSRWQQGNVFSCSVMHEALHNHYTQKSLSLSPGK
# measurement.notes: Octet BLI; biotinylated huDLL3-IgG1 fusion on streptavidin tips; single 50 nM; conditioned medium
pKd: −log10 of the molar value.

[
  {
    "binder": "anti-DLL3 trispecific protein 2E05 (protein, part only; not given: CD3 fragment and albumin sdAb, part only) chain, part: EVQLVESGGGLVQPGGSLTLSCVASGSPSSINAYGWYRRAPGKQRELVAGISSDGSKVYSDSVKGRFTISRDNAKNSVYLQMNSLRAEDTAVYYCYYFRTVSGSSMSYWGQGTLVTVSSGGGGSGGGSGGGGSGGGSHHHHHH",
    "pKd": 8.41
  },
  {
    "binder": "anti-DLL3 trispecific protein 4B02 (protein, part only; not given: CD3 binder and albumin binder, part only) chain, part: EVQLVESGGGLVQPGGSLTLSCAASGSRVSFLSMAWYRQAPGKKRELVAGISADGSTTYIDSVKGRFTISRDNAKNSVYLQMNSLRAEDTAVYYCYAYRWTTRFTYWGQGTLVTVSSGGGGSGGGSGGGGSGGGSHHHHHH",
    "pKd": 8.15
  },
  {
    "binder": "anti-DLL3 trispecific protein 1C01 (protein, part only; not given: anti-CD3 and anti-albumin domains, part only) chain, part: EVQLVESGGGLVQPGGSLTLSCVASGSTSSINAMGWYRRAPGKQRELVAGISSDGSKVYRDSVKGRFTISRDNAKNSVYLQMNSLRAEDTAVYYCYYFRTVSGSSMGYWGQGTLVTVSSGGGGSGGGSGGGGSGGGSHHHHHH",
    "pKd": 8.37
  },
  {
    "binder": "anti-DLL3 trispecific protein 1C06 (protein, part only; not given: anti-CD3 and anti-albumin domains, part only) chain, part: EVQLVESGGGLVQPGGSLTLSCVASGSTSIINAMGWYRRAPGKQRELVAGISSDGSKVYEDSVKGRFTISRDNAKNSVYLQMNSLRAEDTAVYYCYYFRAVSGSSMRYWGQGTLVTVSSGGGGSGGGSGGGGSGGGSHHHHHH",
    "pKd": 8.08
  }
]
